Each recorded value in this set is attributed to patent US20140107109A1.

# subject-of-test: Cathepsin D (Cat D) (Homo sapiens)
# Construct: Recombinant Cat D was expressed in CHO cells; made in house; host or cells: CHO cells
# assay-method-text: In vitro enzymatic Cathepsin D (Cat D) FRET assay
# Assay type: biochemical
# cond: read-out: CatD IC50
observed-property: pIC50
Numbers only, as −log10 of the molar value.

Consider the reported pIC50 for these compounds:
[[record]]
test_smiles = "COc1cnc2c(Nc3cnc(F)c([C@]4(C)CS(=O)(=O)C5(CCC5)C(N)=N4)c3)nccc2n1"
subject_of_test = "Cathepsin D (Cat D) (Homo sapiens)"
numeric_result = 3.79

[[record]]
test_smiles = "COc1ccc2nc(C(=O)Nc3ccc(F)c([C@]4(CF)CS(=O)(=O)C(C)(C)C(N)=N4)c3)c(C)n2c1"
subject_of_test = "Cathepsin D (Cat D) (Homo sapiens)"
numeric_result = 4.01


Could you now look at the following compound, please?
Ask: Could you tell me which pIC50 is on file for CC1(C)C(N)=N[C@](C)(c2cc(Nc3ncc(Br)c4cc(Cl)cnc34)ccc2F)CS1(=O)=O ?
Result: 3.67

* * *

# subject-of-test: Cathepsin D (Cat D) (Homo sapiens, UniProt P07339)
# Construct: Recombinant Cat D was expressed in CHO cells; made in house; host or cells: CHO cells
# Sequence (P07339 65-412, species assumed): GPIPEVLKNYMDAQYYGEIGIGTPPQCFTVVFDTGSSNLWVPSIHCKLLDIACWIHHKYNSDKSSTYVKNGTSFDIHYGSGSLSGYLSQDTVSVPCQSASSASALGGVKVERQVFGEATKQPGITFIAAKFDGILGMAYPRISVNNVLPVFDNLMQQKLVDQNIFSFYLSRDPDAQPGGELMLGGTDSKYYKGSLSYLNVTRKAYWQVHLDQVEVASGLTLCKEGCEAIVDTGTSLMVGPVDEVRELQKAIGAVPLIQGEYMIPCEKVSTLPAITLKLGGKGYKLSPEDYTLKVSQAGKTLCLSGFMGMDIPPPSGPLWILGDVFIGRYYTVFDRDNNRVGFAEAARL
# assay-method-text: In vitro enzymatic Cathepsin D (Cat D) FRET assay
# Format: biochemical
# cond: read-out: CatD IC50
observed-property: IC50 (µM)
Numbers only, in µM.

[[record]]
compound = "Cc1cc(Cl)cnc1C(=O)Nc1ccc(F)c([C@]2(C)CS(=O)(=O)[C@@](C)(F)C(N)=N2)c1 [Example 388]"
observed_property = "IC50"
value_unit = "µM"
numeric_result = 230


Could you now look at the following compound, please?
Ask: Could you tell me which IC50 is on file for CC1(C)C(N)=N[C@](C)(c2cc(Nc3ncc(F)c4cc(C#N)cnc34)cnc2F)CS1(=O)=O [Example 221] ?
Result: 43.1

* * *

Kindly state pIC50 for each of the entries shown.
# subject-of-test: Cathepsin D (Cat D) (Homo sapiens)
# Construct: Recombinant Cat D was expressed in CHO cells; made in house; host or cells: CHO cells
# assay-method-text: In vitro enzymatic Cathepsin D (Cat D) FRET assay
# Type: biochemical
# cond: read-out: CatD IC50
One number for each entry, as −log10 of the molar value.

Consider the reported pIC50 for these molecules:
[[record]]
test_smiles = "CC1(C)C(N)=N[C@](C)(c2cc(NC(=O)c3ccc(Cl)cc3F)ccc2F)CS1(=O)=O"
numeric_result = 3.35

[[record]]
test_smiles = "CC1(C)C(N)=N[C@](C)(c2cc(Oc3ccccn3)ccc2F)CS1(=O)=O"
numeric_result = 3.61


Could you now look at the following molecule, please?
Ask: Could you tell me which pIC50 is on file for NC1=N[C@@](CF)(c2cc(Nc3nccc4cc(Cl)cnc34)ccc2F)CS(=O)(=O)C12CCC2 ?
Result: 3.28

* * *

# subject-of-test: Beta Secretase enzyme (BACE1) (Homo sapiens)
# Sequence (P56817 46-501): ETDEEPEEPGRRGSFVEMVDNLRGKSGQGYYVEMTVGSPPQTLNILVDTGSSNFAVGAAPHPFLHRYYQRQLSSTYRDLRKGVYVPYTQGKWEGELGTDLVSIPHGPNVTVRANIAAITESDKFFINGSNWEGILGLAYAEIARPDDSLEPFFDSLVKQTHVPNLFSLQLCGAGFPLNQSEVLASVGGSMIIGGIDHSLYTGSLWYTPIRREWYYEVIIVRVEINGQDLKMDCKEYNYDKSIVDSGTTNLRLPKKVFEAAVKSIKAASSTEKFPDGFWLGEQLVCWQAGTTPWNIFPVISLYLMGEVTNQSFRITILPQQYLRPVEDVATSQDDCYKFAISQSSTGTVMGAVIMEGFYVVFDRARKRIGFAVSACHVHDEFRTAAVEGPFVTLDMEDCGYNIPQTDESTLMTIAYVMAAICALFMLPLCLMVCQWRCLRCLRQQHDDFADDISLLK
# assay-method-text: In vitro enzymatic BACE FRET assay
# Assay type: biochemical
# cond: average IC50, enzyme assay; read-out: BACE1 FRET assay IC50
observed-property: pIC50
Give bare numbers, as −log10 of the molar value.

[[record]]
compound = "Cc1cc(C)c(C#N)c(Oc2ccc(F)c([C@]3(C)CS(=O)(=O)C(C)(C)C(N)=N3)c2)n1 [Example 295]"
observed_property = "pIC50"
numeric_result = 5.58


# per-item lookup of pIC50; items listed below
1. CC1(C)C(N)=N[C@](C)(c2cc(NC(=O)c3ccc4ccccc4n3)ccc2F)CS1(=O)=O [Example 315]
2. CC1(C)C(N)=N[C@](C)(c2cc(Oc3cc(-c4ccc(C(F)(F)F)cc4)ccn3)ccc2F)CS1(=O)=O [Example 255]
3. C[C@@]1(c2cc(Nc3nccc4cc(Cl)cnc34)cnc2F)CS(=O)(=O)C2(CCC2)C(N)=N1 [Example 230]

Result:
1. 7.42
2. 6.18
3. 8.42
